target: maltase; experiment: alpha-glucosidase inhibiting action in vitro: maltase; type: biochemical, rabbit; details: crudely purified enzyme from rabbit small intestine mucosa; 50 mM maltose, pH 7.0, 37° C., 30 minutes; average of three measurements (* four)
Output schema: class label derived from IC50, Maltase. Mapping: I (below 70 µg/mL), II (70 µg/mL to below 200 µg/mL), III (200 µg/mL or more)

// below: answered molecules
[
  {
    "molecule": "OC[C@@H]1[C@@H](O[C@H]2O[C@H](CO)[C@@H](O)[C@H](O)[C@H]2O)[C@H](O)[C@@H](O)CN1CCCCOc1ccccc1",
    "group": "II"
  },
  {
    "molecule": "CCCCCCCCCN1C[C@H](O)[C@@H](O)[C@H](O[C@H]2O[C@H](CO)[C@@H](O)[C@H](O)[C@H]2O)[C@H]1CO [Example 17, hydrate]",
    "group": "II"
  },
  {
    "molecule": "OC[C@@H]1[C@@H](O[C@H]2O[C@H](CO)[C@@H](O)[C@H](O)[C@H]2O)[C@H](O)[C@@H](O)CN1CCOc1ccccc1",
    "group": "III"
  },
  {
    "molecule": "C=CCN1C[C@H](O)[C@@H](O)[C@H](O[C@H]2O[C@H](CO)[C@@H](O)[C@H](O)[C@H]2O)[C@H]1CO",
    "group": "III"
  },
  {
    "molecule": "OC[C@@H]1[C@@H](O[C@H]2O[C@H](CO)[C@@H](O)[C@H](O)[C@H]2O)[C@H](O)[C@@H](O)CN1CC(O)COc1ccccc1 (stereo partly drawn) [Example 22, p-toluenesulfonate hydrate]",
    "group": "I"
  }
]

Ask: Using the reported IC50, Maltase, which band applies to "OC[C@@H]1[C@@H](O[C@H]2O[C@H](CO)[C@@H](O)[C@H](O)[C@H]2O)[C@H](O)[C@@H](O)CN1CCc1ccccc1" ?
Reply: II

Ask: Continue with "OC[C@@H]1[C@@H](O[C@H]2O[C@H](CO)[C@@H](O)[C@H](O)[C@H]2O)[C@H](O)[C@@H](O)CN1CC=Cc1ccccc1"
Reply: III

Ask: What do you get for "OC[C@@H]1[C@@H](O[C@H]2O[C@H](CO)[C@@H](O)[C@H](O)[C@H]2O)[C@H](O)[C@@H](O)CN1Cc1ccc(Br)cc1" ?
Reply: I

Ask: Another molecule to look at: "COc1ccc(CN2C[C@H](O)[C@@H](O)[C@H](O[C@H]3O[C@H](CO)[C@@H](O)[C@H](O)[C@H]3O)[C@H]2CO)cc1"
Reply: II

Ask: Would you mind doing "COC(=O)CCCCN1C[C@H](O)[C@@H](O)[C@H](O[C@H]2O[C@H](CO)[C@@H](O)[C@H](O)[C@H]2O)[C@H]1CO" as well?
Reply: I

Ask: And then "CC(C)=CCN1C[C@H](O)[C@@H](O)[C@H](O[C@H]2O[C@H](CO)[C@@H](O)[C@H](O)[C@H]2O)[C@H]1CO" , what is it?
Reply: III
